Kindly supply the reported EC50 values for the records listed here.
- target_system: LHRH receptor (LHRH binding sites) on EFO-27 human ovarian cancer cells (human)
- procedure_details: competition with [125I-Tyr8]BRU-2477, EFO-27 cells
Non-standard residues stand in square brackets, D forms with d. d2Nal = N[C@H](Cc1ccc2ccccc2c1)C(=O)O; DO3A10CM = not defined here; Bpa4 = non-natural residue; Hypt4 = not defined here; azaGly = NNC(=O)O
Give bare numbers, in nM.

[
  {
    "binder": "XRWSHXWXP (N-terminal DO3A10CM; Dnal2 at 1; Darg at 6; Bpa4 at 8; C-terminal A1gua5o3pt at 10) [BRU-2985]",
    "unit_symbol": "nM",
    "obs_value": 460
  },
  {
    "binder": "XRWSXXWXPX (N-terminal DO3A10CM; Dnal2 at 1; Orn at 5; Darg at 6; Bpa4 at 8; azaGly-NH2 at 10) [BRU-2961]",
    "unit_symbol": "nM",
    "obs_value": 350
  },
  {
    "binder": "XRWSHXWXP (Sar at 1; Darg at 6; Bpa4 at 8; C-terminal Bap14p linker carrying DO3A10CM) [BRU-3044]",
    "unit_symbol": "nM",
    "obs_value": 240
  },
  {
    "binder": "DO3A10CM-[d2Nal]RWSH[dR]W[Bpa4][Hypt4][azaGly]-NH2 (reading uncertain) [BRU-2952]",
    "unit_symbol": "nM",
    "obs_value": 280
  },
  {
    "binder": "XHWSHXWXPX (N-terminal DO3A10CM; Dnal2 at 1; Darg at 6; Bpa4 at 8; azaGly-NH2 at 10) [BRU-2666]",
    "unit_symbol": "nM",
    "obs_value": 470
  }
]

For every item below, please supply its EC50.
1. XRXSHXWXPX (N-terminal DO3A10CM; Dnal2 at 1; Nal2 at 3; Darg at 6; Bpa4 at 8; azaGly-NH2 at 10) [BRU-3105]
2. XRWSHXWXP (Sar at 1; Darg at 6; Bpa4 at 8; C-terminal Dapt15 linker carrying DO3A10CM) [BRU-3085]

1. 220
2. 400
